# System: HIV-1ERS104pre (wild type)
# assayName: Antiviral assay in PHA-PBMs, inhibition of p24 Gag protein production, wild-type isolate
# Format: cell-based
# statedConditions: Human immunodeficiency virus 1
recordedEndpoint: IC50

                             chemicalsmiles  valuereported
0  COc1ccc(S(=O)(=O)N(CC(C)C)C[C@@H](O)[C@H](Cc2ccccc2)NC(=O)O[C@@H]2C[C@@H]3[C@H](O)CO[C@@H]3C2)cc1          20 nM
1  COc1ccc(S(=O)(=O)N(CC(C)C)C[C@@H](O)[C@H](Cc2ccccc2)NC(=O)O[C@@H]2C[C@@H]3[C@@H](O)CO[C@@H]3C2)cc1         2.9 nM

---

# tgt: HIV-1 protease (Human immunodeficiency virus type 1 group M subtype B, UniProt P04585)
# Construct: The HIV aspartic protease plays a central role in the life cycle of the virus; It cleaves the virally encoded polyprotein
# assayName: HIV-1 protease enzyme inhibitory assay (protocol of Toth and Marshall)
# Assay type: biochemical
# statedConditions: read-out: Ki / enzyme inhibitory potency
pKi: −log10 of the molar value.
Documented pKi across a set of compounds
recordedEndpoint: pKi

>>> df
                                   compound  recordedendpoint  valuereported
0  COc1ccc(S(=O)(=O)N(CC(C)C)C[C@@H](O)[C@H](Cc2ccccc2)NC(=O)O[C@@H]2C[C@@H]3[C@@H](NC(C)=O)CO[C@@H]3C2)cc1 [Inhibitor 19h]               pKi          11.15
1  COc1ccc(S(=O)(=O)N(CC(C)C)C[C@@H](O)[C@H](Cc2ccccc2)NC(=O)O[C@@H]2C[C@@H]3[C@H](NC(C)=O)CO[C@@H]3C2)cc1 [Inhibitor 19g]               pKi          11.15

---

Documented pIC50 across a set of compounds
# Test system: HIV-1LAI
# assayName: In vitro antiviral assay, MT-2 cells exposed to HIV-1LAI, MTT assay
# Assay type: cell-based
# statedConditions: Human immunodeficiency virus 1, MT2, read-out: antiviral IC50
pIC50: −log10 of the molar value.
recordedEndpoint: pIC50

                                   compound  valuereported
0  COc1ccc(S(=O)(=O)N(CC(C)C)C[C@@H](O)[C@H](Cc2ccccc2)NC(=O)O[C@@H]2C[C@@H]3[C@@H](NC(C)=O)CO[C@@H]3C2)cc1 [Inhibitor 19h]           7.51
1  COc1ccc(S(=O)(=O)N(CC(C)C)C[C@@H](O)[C@H](Cc2ccccc2)NC(=O)O[C@@H]2C[C@@H]3[C@H](OC)CO[C@@H]3C2)cc1 [Inhibitor 19b]           7.43
2  COc1ccc(S(=O)(=O)N(CC(C)C)C[C@@H](O)[C@H](Cc2ccccc2)NC(=O)O[C@@H]2C[C@@H]3[C@H](NC(C)=O)CO[C@@H]3C2)cc1 [Inhibitor 19g]           7.60
3  COc1ccc(S(=O)(=O)N(CC(C)C)C[C@@H](O)[C@H](Cc2ccccc2)NC(=O)O[C@@H]2C[C@@H]3[C@@H](O)CO[C@@H]3C2)cc1           8.54
4  COc1ccc(S(=O)(=O)N(CC(C)C)C[C@@H](O)[C@H](Cc2ccccc2)NC(=O)O[C@@H]2C[C@@H]3[C@H](O)CO[C@@H]3C2)cc1           8.30
